Below is a list of entries, each paired with its recorded inhibition at 10000 µM value.
target: porcine pancreatic PLA2 (Sus scrofa, UniProt P00592); construct: from tissue; host or cells: porcine pancreas; test: In Vitro Phospholipase A2 Assay (PLA2); format: biochemical; details: 0.01M; read-out: PLA2 (difference vs. control)
Sequence (P00592 23-146): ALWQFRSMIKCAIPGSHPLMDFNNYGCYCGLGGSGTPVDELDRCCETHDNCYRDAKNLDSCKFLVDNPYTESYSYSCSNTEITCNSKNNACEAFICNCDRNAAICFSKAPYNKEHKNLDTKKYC
All answers are understood in %, so give the number only.

Known value: porcine pancreatic PLA2 (Sus scrofa, UniProt P00592) inhibition at 10000 µM of the compound Nc1ccncc1Oc1ccc2[nH]ccc2c1 [3-[(1H-Indol-5-yl)-oxy]-4-pyridinamine, 3-[(1H-Indol-5-yl)oxy]-4-pyridinamine] equals 34

----------
target: porcine pancreatic PLA2 (Sus scrofa, UniProt P00592); construct: from tissue; host or cells: porcine pancreas; test: In Vitro Phospholipase A2 Assay (PLA2); type: biochemical; conditions: 0.01M; read-out: PLA2 (difference vs. control)
Would you please tag the item rule met when its inhibition at 10000 µM is 70% or above, and rule not met when it is below?

- molecule: "Nc1ccncc1Nc1ccc2[nH]ccc2c1"
  answerLabel: "rule met"

Query block: I'd appreciate it if you could say whether O=[N+]([O-])c1cc[n+]([O-])cc1Nc1ccc2cn[nH]c2c1 has inhibition at 10000 µM at least equal to 70%.
Result block: rule met

Query block: Has Nc1ccncc1Nc1ccc2cn[nH]c2c1 a recorded inhibition at 10000 µM greater than or equal to 70%?
Result block: rule not met

Query block: Check if inhibition at 10000 µM >= 70% (inclusive). Item: O=[N+]([O-])c1cnccc1Nc1ccc2[nH]ccc2c1
Result block: rule not met

Query block: Tell me whether inhibition at 10000 µM is at least 70% here: Nc1cnccc1Nc1ccc2[nH]ccc2c1
Result block: rule met

Query block: State whether the measured inhibition at 10000 µM reaches 70%, counting equality as reaching it, for Cn1ccc2cc(Nc3c[n+]([O-])ccc3[N+](=O)[O-])ccc21
Result block: rule not met

Query block: Item Cn1ccc2cc(Nc3cnccc3N)ccc21 with inhibition at 10000 µM of 70% or above?
Result block: rule not met
